Attribution: ChEMBL document CHEMBL4483862

tested on: Plasmodium berghei; assay: Luciferase/luciferin-expressing antifolate-resistant parasites were used to infect a culture of HepG2 cells that were pre-incubated with compounds. Infected hepatocytes emit light due to the luciferase reaction. Assay results are presented as the percent inhibition of light emission compared to control. […]; assay type: functional; conditions: sporozoite, read-out: LUCIFERASE INFECTION ASSAY - IC90
Recorded IC90 values for a group of compounds are listed next.

Below, each entry is followed by its recorded IC90 result.
>>> result("COc1ncccc1-c1cc2c(cn1)nc(Nc1cccc(C(F)(F)F)c1)n2C")
"> 10 µM"
>>> result("O=[N+]([O-])c1ccc2nc3c(c(-c4ccccc4)c2c1)CSc1ccccc1-3")
"> 10 µM"

Now for the compound whose IC90 we want.
Tell me the measured IC90 of CCC(C)(C)c1ccc(Oc2ccc(NC(=O)CSc3cccc[n+]3[O-])cc2)cc1 , please.
> 10 µM
